Test: basal RPMI8226 viability, no added stimulus, profiling panel, cell-based, calcein-AM fluorescence, 48 h, PK04 Diversity Set (AID 1166);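 also: cells grown under basal conditions without added stimulus; test concentration not given here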
Conditions: RPMI8226 myeloma viability, higher = more signal
endpoint_label: z-score
Give the figure by itself; no unit, no explanation.

Fill blank: measured z-score of the compound CCCC[C@@H]1C[C@H]1[C@@H](NC(=O)c1ccco1)c1ccc(C(=O)OC)cc1 is ____.
-2.42

z-score lookup needed for CCCCC(=C=CC[C@@H](O)c1ccccc1OCCO)CCO , thanks.
0.181

Reported z-score for COCCCN1C(=O)[C@@]2(c3ccc([N+](=O)[O-])cc3)CC(=O)N(C3CCCCC3)[C@@H]2c2ccc(CO)cc21 : what is it?
-1.23

# input compound: O=C1O[C@H](c2ccccc2)[C@H](c2ccccc2)N2[C@H]1[C@@H](C(=O)O)[C@]1(C(=O)Nc3ccc(C#CCCO)cc31)[C@H]2c1ccc(O)cc1 ; wanted: its z-score
0.858

Fill blank: measured z-score of the compound COCC(=C=CC[C@H](O)c1ccccc1OCCO)C[C@H](O)c1cc(Cl)cc(Cl)c1O is ____.
-3.02

Data request, read-out z-score, for COc1ccc(C(O)C2C=CC3C(=O)NC(=O)C3N2Nc2ccccn2)c2ccccc12 (stereo not drawn)
0.384

Would you kindly share the measured z-score for CCN(CC)c1ccc(N2CC=CC34O[C@@H]5/C=C\CCCOC(=O)C5[C@H]3C(=O)N(CCO)[C@@H]4C2=O)cc1 (stereo partly drawn) ?
-0.509

What measured z-score goes with C=CCOC(=O)[C@@H]1[C@H]2C(=O)O[C@H](c3ccccc3)[C@H](c3ccccc3)N2[C@H](c2ccc(OCCOC(=O)[C@@H]3C[C@@H]4C(=O)N[C@@H](CCCC[N+](C)(C)C)C(=O)N4[C@@H]3c3cccc(OCCO)c3)cc2)[C@@]12C(=O)Nc1ccc(I)cc12 ?
-2.03

Values were extracted from PubChem BioAssay.
